Experiment: solvent given as SMILES
Details: in CCOC(C)=O
Reported absorption maximum values for the following compounds.

Recorded absorption maximum, per entry:
compound	absorption maximum
Cn1c(=O)c(/N=N/c2cc(S(=O)(=O)O)ccc2C(=O)O)c(O)c2ccccc21	407 nm
CC1=[N+]2C(=C(Oc3ccccc3)c3ccc(C)n3[B-]2(F)F)C=C1c1cc2n(c1)[B-](F)(F)[N+]1=CC=CC1=C2c1c(C)cc(C)cc1C	577 nm
Cc1c2oc3c(C)c(N)cc(C(=O)NC4OC(=O)C(C(C)C)N(C)C(=O)CN(C)C(=O)C5CCCN5C(=O)C(C(C)C)NC4=O)c3nc-2c(C(=O)NC2OC(=O)C(C(C)C)N(C)C(=O)CN(C)C(=O)C3CCCN3C(=O)C(C(C)C)NC2=O)c(N)c1=O (configuration not stated)	522.62 nm
CCN1CCN(c2ccc(/N=N/c3ccc(C#N)cc3)cc2)CC1	428 nm
Cc1ccc(C#Cc2ccc3ccc4cccc5ccc2c3c45)cc1	362 nm

Entry c1ccc(-c2nc(-c3ccc(-c4nc(-c5ccccc5)c(-c5ccccc5)[nH]4)cc3)[nH]c2-c2ccccc2)cc1 , absorption maximum reported as 359 nm

Entry CCn1c2ccccc2c2cc(-c3cc(-c4ccc5c(c4)c4ccccc4n5CC)nc(SC)n3)ccc21 , absorption maximum reported as 369 nm

Entry CCN(CC)c1ccc(OC)c(C=O)c1 , absorption maximum reported as 406 nm

Entry O=Cc1cc2c(cc3ccc4cccc5ccc2c3c45)[nH]1 , absorption maximum reported as 416 nm

Entry Cc1cc(O)c(C(C)C)cc1/N=C/c1ccc([N+](=O)[O-])cc1 , absorption maximum reported as 397 nm

Entry CN(c1ccccc1)c1ccc(/C=C2\C(=O)c3ccccc3S2(=O)=O)cc1 , absorption maximum reported as 465 nm

Entry CCCCCCCCCCCCOc1ccc(C#CC(C#Cc2ccc(OCCCCCCCCCCCC)cc2)=Cc2cc(C=C(C#Cc3ccc(OCCCCCCCCCCCC)cc3)C#Cc3ccc(OCCCCCCCCCCCC)cc3)cc(C=C(C#Cc3ccc(OCCCCCCCCCCCC)cc3)C#Cc3ccc(OCCCCCCCCCCCC)cc3)c2)cc1 , absorption maximum reported as 347 nm

Entry CN(CCO)c1ccc(/C=C/C2=C(C#N)C(C(C#N)C#N)OC2(C)C)cc1 (configuration not stated) , absorption maximum reported as 565 nm

Entry Cc1cc(-c2ccccc2)nc2c1ccc1nc(-c3ccccc3)cn12 , absorption maximum reported as 352 nm

Entry N#Cc1cc2ccccc2oc1=O , absorption maximum reported as 339 nm

Entry COc1cc(OC)cc(-c2ccc(-c3ccc(C#N)s3)s2)c1 , absorption maximum reported as 365 nm

Entry CN(C)c1ccc(/C=C/C=C2\CC/C(=C\C=C\c3ccc(N(C)C)cc3)C2=O)cc1 , absorption maximum reported as 480 nm
